Cited source for all entries: PubChem BioAssay AID2060908

Tested on: 186277-243-T-J2-PDC complex spheroids, viability;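 note: spheroids exposed to compounds for 7 days before viability read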
Assay: Anticancer human tumor 186277-243-T-J2-PDC patient-derived colon adenocarcinoma cell line growth inhibition [RAS]
Conditions: second compound 0.3 µM; first compound 10 µM; stronger effect = lower value

| compound | uom | viability, T/C |
| --- | --- | --- |
| CC(Nc1ccc2c(c1)OCCn1cc(N3C(=O)OCC3C(F)F)nc1-2)C(N)=O (stereo not drawn) + CCn1c(-c2cc(N3CCN(C)CC3)cnc2C(C)OC)c2c3cc(ccc31)-c1csc(n1)CC(NC(=O)C1CC1C)C(=O)N1CCCC(N1)C(=O)OCC(C)(C)C2 | % | 0.29 |
| CC(=O)OC12COC1CC(O)C1(C)C(=O)C(O)C3=C(C)C(OC(=O)C(O)C(NC(=O)OC(C)(C)C)c4ccccc4)CC(O)(C(OC(=O)c4ccccc4)C21)C3(C)C (stereo not drawn) + CCn1c(-c2cccnc2C(C)OC)c2c3cc(ccc31)N1CCOC(CC(NC(=O)C(C(C)C)N(C)C(=O)C3(F)CCN(C(=O)C#CC(C)(C)N(C)C)CC3)C(=O)N3CCCC(N3)C(=O)OCC(C)(C)C2)C1 | % | 3.72 |
| Cc1nc(N2CCC3(CC2)COC(C)C3N)c(CO)nc1Sc1ccnc(N)c1Cl (stereo not drawn) + CCn1c(-c2cc(N3CCN(C)CC3)cnc2C(C)OC)c2c3cc(ccc31)-c1csc(n1)CC(NC(=O)C1CC1C)C(=O)N1CCCC(N1)C(=O)OCC(C)(C)C2 | % | 1.92 |
| CC(C)NCC(C(=O)N1CCN(c2ncnc3c2C(C)CC3O)CC1)c1ccc(Cl)cc1 (stereo not drawn) + CCn1c(-c2cc(N3CCN(C)CC3)cnc2C(C)OC)c2c3cc(ccc31)-c1csc(n1)CC(NC(=O)C1CC1C)C(=O)N1CCCC(N1)C(=O)OCC(C)(C)C2 | % | 0.37 |
| NC1c2ccccc2OC12CCN(c1cnc3c(N4CCCc5ncccc54)n[nH]c3n1)CC2 (stereo not drawn) + CCn1c(-c2cc(N3CCN(C)CC3)cnc2C(C)OC)c2c3cc(ccc31)-c1csc(n1)CC(NC(=O)C1CC1C)C(=O)N1CCCC(N1)C(=O)OCC(C)(C)C2 | % | 1.56 |
| C[C@@H](NC(=O)c1ncnc(N)c1Cl)c1ncc(C(=O)Nc2cc(C(F)(F)F)c(Cl)cn2)s1 + CCn1c(-c2cc(N3CCN(C)CC3)cnc2C(C)OC)c2c3cc(ccc31)-c1csc(n1)CC(NC(=O)C1CC1C)C(=O)N1CCCC(N1)C(=O)OCC(C)(C)C2 | % | 4.79 |
| CC1(O)CCCC1n1c(=O)c(C(F)F)cc2cnc(NC3CCN(S(C)(=O)=O)CC3)nc21 (stereo not drawn) + CCn1c(-c2cc(N3CCN(C)CC3)cnc2C(C)OC)c2c3cc(ccc31)-c1csc(n1)CC(NC(=O)C1CC1C)C(=O)N1CCCC(N1)C(=O)OCC(C)(C)C2 | % | 0.34 |
| CC(=O)OC12COC1CC(O)C1(C)C(=O)C(O)C3=C(C)C(OC(=O)C(O)C(NC(=O)OC(C)(C)C)c4ccccc4)CC(O)(C(OC(=O)c4ccccc4)C21)C3(C)C (stereo not drawn) + CCn1c(-c2cc(N3CCN(C)CC3)cnc2C(C)OC)c2c3cc(ccc31)-c1csc(n1)CC(NC(=O)C1CC1C)C(=O)N1CCCC(N1)C(=O)OCC(C)(C)C2 | % | 2.28 |
